Experiment: yeast display, Sf9 membrane polyspecificity reagent, FACS + sequencing; frameworks hold sequencing errors
assay_readout: polyreactivity (PSR sort gate)

INSERT INTO results (residue_codes, recorded_measurement) VALUES
  ('QVQLVESGRGLVQAGGSLRLSCAASGSTFTEYAMGWYREAPGKERELFAAINRSGGGTYYADSVKGRFTISRDNAKNTVYLQINSLKPEDTADYYCAKDWYRRYIRDYWGQGTQVTVSS', 'high polyreactivity'),
  ('QDQLVESGGGLVQAGGSLRLSCAASGITFPKYAMGWYRQAPGKERELVAAITKSGGSTYYADSVKGRFTISRDNAKNTVYLQMNSLKPEVTAVYYCAARPRYGEYDYWGQGTQVTVSS', 'high polyreactivity'),
  ('QVQLVESGGGLVQAGGSLRLSCAASGRTFSNYAMGGYRQAPGKERELVAAISERGGSTYYADSVKGRFTISRDNPKNSVFVQLNSLKPEDTAVYDCNALFRLRAYAEMDYWGQGTQVTVSS', 'high polyreactivity');

src = the nanobody polyreactivity screen of Harvey et al. (2022)
